# System name: cGMP-dependent protein kinase 2 (Homo sapiens) (UniProt Q13237);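 also: mean inhibition of PRKG2 from the GSK PKIS screen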
# Sequence (whole entry): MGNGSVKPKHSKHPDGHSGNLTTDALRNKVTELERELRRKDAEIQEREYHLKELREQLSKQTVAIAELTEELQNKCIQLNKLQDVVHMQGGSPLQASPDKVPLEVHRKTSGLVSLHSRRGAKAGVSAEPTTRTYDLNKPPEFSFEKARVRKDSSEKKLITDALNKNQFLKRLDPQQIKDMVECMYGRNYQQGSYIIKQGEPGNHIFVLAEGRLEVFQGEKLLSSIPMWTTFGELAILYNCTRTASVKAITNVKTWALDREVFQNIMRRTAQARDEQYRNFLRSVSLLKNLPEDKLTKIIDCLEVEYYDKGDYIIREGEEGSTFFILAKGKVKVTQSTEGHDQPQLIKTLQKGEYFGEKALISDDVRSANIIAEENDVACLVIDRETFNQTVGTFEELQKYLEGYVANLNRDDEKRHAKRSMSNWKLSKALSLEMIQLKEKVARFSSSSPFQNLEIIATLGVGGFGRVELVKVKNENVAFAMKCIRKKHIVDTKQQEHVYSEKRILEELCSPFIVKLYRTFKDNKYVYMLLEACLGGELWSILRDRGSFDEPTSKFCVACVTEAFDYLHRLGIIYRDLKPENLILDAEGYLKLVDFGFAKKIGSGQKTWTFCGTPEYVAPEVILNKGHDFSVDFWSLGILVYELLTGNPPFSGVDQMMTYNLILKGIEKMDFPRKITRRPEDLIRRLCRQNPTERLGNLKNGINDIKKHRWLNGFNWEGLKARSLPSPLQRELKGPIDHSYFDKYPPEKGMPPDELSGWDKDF
# Conditions used: at 1 µM
Provide the reported inhibition of each item.
Report only the number, with the unit % understood.

Return reported inhibition; argument: "CCn1c(-c2nonc2N)nc2c(C#CC(C)(C)O)nc(OC[C@@H](N)c3ccccc3)cc21"
73.3

Could you tell me which inhibition is on file for "COc1ccc(COc2ccc(Cc3cnc(N)nc3N)cc2OC)cc1" ?
3.2

Look at this compound and give its reported inhibition. "O=C1NC(=O)C(c2ccccc2Cl)=C1Nc1cccc(O)c1"
4.57

Query: inhibition; subject: "COc1ccc(-c2nn3ncccc3c2-c2ccnc(Nc3ccc(Cl)c(C(F)(F)F)c3)n2)cc1"
2.46

// returns reported inhibition for input "CNC(=O)c1cncc(/C=C/c2c(Cl)cccc2Cl)c1"
4.56

Dear colleague, I am looking for the recorded inhibition of the following compound: "COc1cc2ncn(-c3cc(O[C@@H](C)c4ccccc4Cl)c(C(N)=O)s3)c2cc1OC"
5.22

Given the compound "CS(=O)(=O)CCNCc1ccc(-c2ccc3ncnc(Nc4ccc(OCc5ccccc5)c(Cl)c4)c3c2)o1" , what is its reported inhibition?
1.26

Query (compound): "O=C1NC(=O)C(c2ccc(Cl)cc2)=C1Nc1ccc(Cl)c(C(=O)O)c1" ; field requested: inhibition
-0.68

// lookup inhibition for "COC(=O)Nc1nc2cc(Oc3cccc(NC(=O)Nc4cc(C(F)(F)F)ccc4F)c3)ccc2[nH]1"
6.47

Quick check: inhibition of "COc1ccc(-c2coc3ncnc(N)c23)cc1" ?
3.93

Taken from ChEMBL document CHEMBL1961873.
